Entries and their melting point values follow.

Q. Which melting point reading was recorded for the compound COC1(OC)CCN(c2cc3c(cc2F)c(=O)c(C(=O)O)cn3C2CC2)C1 ?
A. 224 to 226 °C

Q. Which melting point reading was recorded for the compound O=C1N(Cc2ccncn2)c2ccccc2C12COc1cc3c(cc12)CCO3 (centres undefined) ?
A. 158 to 160 °C

Q. Which melting point reading was recorded for the compound Cc1nc(-c2ccc(C(F)(F)F)cc2)sc1COc1ccc(CC(=O)O)cc1 ?
A. 149 to 150 °C

Q. Which melting point reading was recorded for the compound N#CC(C#N)=C1N(CCCN2CCCCC2)CCCN1CCCN1CCCCC1 ?
A. 88 to 90 °C

Q. Which melting point reading was recorded for the compound CC1Cc2ccc(Br)cc2C(c2ccc(N)cc2)=NN1C(N)=O (centres undefined) ?
A. 218 to 221 °C

Next:
Q. Which melting point reading was recorded for the compound COC(=O)c1cc(NC(C)=O)ccc1OC(C)=O ?
A. 133 to 135 °C

Q. Which melting point reading was recorded for the compound O=C(O)C1(c2ccc(Nc3nc(N4CCC(O)CC4)nc4c3CCC4)cc2)CCC1 ?
A. 165 to 167 °C

Q. Which melting point reading was recorded for the compound CC(C)(C)c1cc(N(C(=O)CCC(=O)O)c2ccccc2)cc(C(C)(C)C)c1O ?
A. 205 to 208 °C
